Assay: Cytotoxicity against human Huh7/C24 cells after 72 hrs
Assay type: cell-based, Huh-7
experimental-endpoint: CC50 at 72 h

Past entries and their recorded results:
CS(=O)(=O)Nc1ccc2c(c1)S(=O)(=O)N=C(c1c(O)c3cccn3n(Cc3ccc(F)c(Cl)c3)c1=O)N2 ... > 1 µM
O=c1c(C2=NS(=O)(=O)c3cc(C4CCCS4(=O)=O)ccc3N2)c(O)c2cccn2n1Cc1ccc(F)cc1 (racemic) ... > 33 µM
CC(C)CCn1c(=O)c(C2=NS(=O)(=O)c3cc(N(C)S(C)(=O)=O)ccc3N2)c(O)c2cccn21 ... > 33 µM
CC(C)CCn1c(=O)c(C2=Nc3ccc(NS(C)(=O)=O)cc3S(=O)(=O)N2)c(O)c2cccn21 ... > 1 µM
COc1ccc2c(c1)S(=O)(=O)N=C(c1c(O)c3cccn3n(CCC(C)C)c1=O)N2 ... > 100 µM

Entry CC(C)CCn1c(=O)c(C2=NS(=O)(=O)c3ccccc3N2)c(O)c2cccn21 , CC50 at 72 h reported as > 100 µM

Entry CC(C)CCn1c(=O)c(C2=NS(=O)(=O)c3cc(NS(C)(=O)=O)ccc3N2)c(O)c2cc(F)cn21 , CC50 at 72 h reported as > 1 µM

Entry CN(c1ccc2c(c1)S(=O)(=O)N=C(c1c(O)c3cccn3n(CCC(C)(C)C)c1=O)N2)S(C)(=O)=O , CC50 at 72 h reported as > 33 µM

Entry CC(C)CCn1c(=O)c(C2=NS(=O)(=O)c3cc(NS(=O)(=O)C4CC4)ccc3N2)c(O)c2cccn21 , CC50 at 72 h reported as > 33 µM

###

Test: Apparent permeability from apical to basolateral side in human Caco-2 cells at 10 uM
Format: ADME, cell-based
experimental-endpoint: Papp A→B at 10 µM (×10⁻⁶ cm/s)
Numeric answer only, unit ×10⁻⁶ cm/s assumed.

Past entries and their recorded results:
CN(c1ccc2c(c1)S(=O)(=O)N=C(c1c(O)c3cccn3n(Cc3ccc(F)cc3)c1=O)N2)S(C)(=O)=O ... 0.9
CC(C)CCn1c(=O)c(C2=Nc3ccc(NS(C)(=O)=O)cc3S(=O)(=O)N2)c(O)c2cccn21 ... 0.2
CC(C)CCn1nc(-c2cccs2)c(O)c(C2=Nc3ccc(NS(C)(=O)=O)cc3S(=O)(=O)N2)c1=O ... 0.03
CC(C)CCn1c(=O)c(C2=NS(=O)(=O)c3ccccc3N2)c(O)c2cccn21 ... 11
CS(=O)(=O)Nc1ccc2c(c1)S(=O)(=O)N=C(c1c(O)c3cccn3n(Cc3ccc(F)cc3)c1=O)N2 ... 0.1

Entry CC(C)NCC(O)COc1cccc2ccccc12 (centres undefined) [PROPRANOLOL] , Papp A→B at 10 µM reported as 10

Entry CC(C)CCn1c(=O)c(C2=NS(=O)(=O)c3cc(NS(=O)(=O)C4CC4)ccc3N2)c(O)c2cccn21 , Papp A→B at 10 µM reported as 0.8

Entry CC(C)CCn1c(=O)c(C2=NS(=O)(=O)c3cc(N(C)S(C)(=O)=O)ccc3N2)c(O)c2cccn21 , Papp A→B at 10 µM reported as 4.3

Entry CC(C)(C)CCn1c(=O)c(C2=NS(=O)(=O)c3cc(NS(C)(=O)=O)ccc3N2)c(O)c2cccn21 , Papp A→B at 10 µM reported as 0.7

Taken from ChEMBL document CHEMBL1145561.
